- experimental-protocol: Cytotoxicity against HEK293T cells after 30 hrs by resazurin dye based fluorescence assay
- Format: cell-based, HEK-293T
- conditions: human
Entries and their measured CC50 at 30 h follow.
Please respond with the number in µM and leave the unit unwritten.

Previously resolved entries follow.
O=C(O)c1ccc(OCCCCCCCCCC[P+](c2ccccc2)(c2ccccc2)c2ccccc2)cc1O.[Br-] = 8.2
COC(=O)c1cc(OCCCCCCCCCCCCC[P+](c2ccccc2)(c2ccccc2)c2ccccc2)ccc1O.[Br-] = 0.64

Next molecule, please.
Lookup result for COC(=O)c1ccc(OCCCCCCCCCCCCCBr)cc1O ; measured CC50 at 30 h: 28.6

---

- experimental-protocol: Cytotoxicity against HEK293T cells after 30 hrs by resazurin dye based fluorescence assay
- Type: cell-based, HEK-293T
- conditions: human
observed-property: log10 of CC50 at 30 h (log10 of the value in µM)
Hi team, quick reminder: these entries are log10 of CC50 at 30 h (µM).

Use the examples below as a reference point.
Cc1cc(OCCCCCCCCCCCCC[P+](c2ccccc2)(c2ccccc2)c2ccccc2)ccc1C(=O)O.[Br-] = 0.63
Cc1cc(OCCCCCCCCCCCCC[n+]2cccc3ccccc32)ccc1C(=O)O.[Br-] = 1.39
O=C(O)c1ccc(OCCCCCCCCCCCCC[P+](c2ccccc2)(c2ccccc2)c2ccccc2)cc1O.[Br-] = 1.29
CCOC(=O)c1c(C)cc(OC/C(C)=C/CC/C(C)=C/CC/C(C)=C/COC(C)=O)cc1O = 1.32

log10 of CC50 at 30 h in this record for CCOC(=O)c1c(C)cc(OCCCCCCCCCCCCC[n+]2cccc3ccccc32)cc1O.[Br-] : -0.21

---

- tested-target: UniProt Q26710
- Sequence (Q26710 whole entry): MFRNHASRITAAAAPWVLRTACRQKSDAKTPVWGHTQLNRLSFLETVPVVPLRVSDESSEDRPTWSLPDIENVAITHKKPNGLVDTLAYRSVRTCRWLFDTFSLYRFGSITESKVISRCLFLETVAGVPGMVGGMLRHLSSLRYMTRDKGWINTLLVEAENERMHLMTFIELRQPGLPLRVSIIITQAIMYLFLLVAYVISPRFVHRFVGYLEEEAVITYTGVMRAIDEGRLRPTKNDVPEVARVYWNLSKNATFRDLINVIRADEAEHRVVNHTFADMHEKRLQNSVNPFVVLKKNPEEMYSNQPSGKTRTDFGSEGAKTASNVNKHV
- experimental-protocol: Inhibition of recombinant Trypanosoma brucei brucei alternative oxidase using ubiquinol-1 as substrate incubated for 2 mins followed by substrate addition by spectrophotometric method
pIC50: −log10 of the molar value.
Reported pIC50 values follow for various compounds

Guide cases for pIC50, answers given:
COC(=O)c1ccc(OC/C(C)=C/CC/C(C)=C/COC(C)=O)cc1O = < 5.30
CCOC(=O)c1c(C)cc(OCCCCCCCCCCCCC[n+]2cccc3ccccc32)cc1O.[Br-] = < 5.30
O=C(O)c1ccc(OCCCCCCCCCCCCC[P+](c2ccccc2)(c2ccccc2)c2ccccc2)cc1O.[Br-] = < 5.30
Cc1cc(OCCCCCCCCCCCCC[n+]2cccc3ccccc32)ccc1C(=O)O.[Br-] = < 5.30
CCOC(=O)c1c(C)cc(OCCCCCCCCCCCCCBr)cc1O = < 5.30
COC(=O)c1ccc(OCCCCCCCCCCCCC[n+]2cccc3ccccc32)cc1F.[Br-] = < 5.30

Noted for COC(=O)c1ccc(OCCCCCCCCCCCCC[n+]2cccc3ccccc32)cc1C.[Br-] : its pIC50 reads < 5.30

response.value for O=C(O)c1ccc(OCCCCCCCCCC[P+](c2ccccc2)(c2ccccc2)c2ccccc2)cc1O.[Br-] (field: pIC50) = < 5.30

pIC50 in this record for COC(=O)c1ccc(OCCCCCCCCCCCCC[P+](c2ccccc2)(c2ccccc2)c2ccccc2)cc1O.[Br-] : 7.82

Short answer for O=C(O)c1ccc(OCCCCCCCCCCCCC[P+](c2ccccc2)(c2ccccc2)c2ccccc2)cc1F.[Br-] : pIC50 was < 5.30

---

Below, each entry is listed alongside its reported pIC50.
- tested-target: UniProt:Q26710
- experimental-protocol: Inhibition of recombinant Trypanosoma brucei brucei alternative oxidase using ubiquinol-1 as substrate incubated for 2 mins followed by substrate addition by spectrophotometric method
Scale: negative log10 of molar concentration, which is what pIC50 denotes.

Guide cases for pIC50, answers given:
O=Cc1ccc(OCCCCCCCCCCCCC[n+]2cccc3ccccc32)cc1O = 5.91
C/C(=C\CO)CC/C=C(\C)COc1ccc(C(=O)O)c(F)c1 = 5.96
O=Cc1ccc(OCCCCCCCCCCCCCBr)cc1O = 7.14

Reported pIC50 of COc1cc(OCCCCCCCCCCCCCBr)cc(O)c1C=O : 5.64

# pIC50 of COC(=O)c1ccc(OC/C(C)=C/CC/C(C)=C/CO)cc1C = 5.77
